- tested-target: CDK8/CycC (Homo sapiens, UniProt P49336)
- Sequence (P49336 whole entry): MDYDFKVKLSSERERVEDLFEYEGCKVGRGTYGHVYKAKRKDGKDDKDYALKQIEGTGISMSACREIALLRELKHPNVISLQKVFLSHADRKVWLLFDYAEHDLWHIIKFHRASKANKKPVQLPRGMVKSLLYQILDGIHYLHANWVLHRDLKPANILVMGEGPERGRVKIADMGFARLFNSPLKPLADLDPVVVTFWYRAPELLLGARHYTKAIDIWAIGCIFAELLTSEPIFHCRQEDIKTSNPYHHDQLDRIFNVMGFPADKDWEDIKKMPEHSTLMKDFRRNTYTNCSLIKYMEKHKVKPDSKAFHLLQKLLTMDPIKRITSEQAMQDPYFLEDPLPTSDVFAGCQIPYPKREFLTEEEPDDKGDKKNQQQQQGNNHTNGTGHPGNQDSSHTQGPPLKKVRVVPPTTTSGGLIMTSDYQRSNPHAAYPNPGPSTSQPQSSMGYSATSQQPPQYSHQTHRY
- Sequence (P24863 whole entry partner): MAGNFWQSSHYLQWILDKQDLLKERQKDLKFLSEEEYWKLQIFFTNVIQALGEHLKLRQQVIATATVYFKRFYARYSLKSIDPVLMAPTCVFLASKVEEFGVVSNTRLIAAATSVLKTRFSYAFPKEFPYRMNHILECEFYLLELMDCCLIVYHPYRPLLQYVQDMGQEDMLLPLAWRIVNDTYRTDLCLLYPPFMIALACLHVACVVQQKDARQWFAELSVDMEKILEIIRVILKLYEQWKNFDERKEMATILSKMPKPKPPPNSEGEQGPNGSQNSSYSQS
- assay-explanation: Radiometric protein kinase assay (33PanQinase Activity Assay, ProQinase)
- run-conditions: 1.0 μM ATP, 1.0 μg/50 μL substrate RBER-IRStide, duplicate measurements, read-out: CDK8 Kinase inhibition IC50
- Description: The kinase activity of CDK8/CycC was measured using a radiometric protein kinase assay (33PanQinase® Activity Assay) by ProQinase GmbH, Freiburg, Germany, with the protocols shown at www.proqinase.com/sites/default/files/public/uploads/WildtypeProfiler/radiometric_assay_v05_2012_manual.pdf. […] Apparent inhibition constants (Ki) values were calculated from Km (ATP) and IC50 values for the respective kinases.
Note: every record was labeled by where its IC50 sits among lower segment = under 0.01 µM, middle segment = from 0.01 µM up to 0.06 µM, upper segment = 0.06 µM and over

[
  {
    "item-smiles": "CNc1nccc(-c2sc(NC(=O)Nc3ccc(C)c(C(F)(F)F)c3)nc2C)n1",
    "tested-target": "CDK8/CycC (Homo sapiens, UniProt P49336)",
    "assigned-label": "middle segment"
  },
  {
    "item-smiles": "CNc1nccc(-c2sc(NC(=O)Nc3cccc(C#N)c3)nc2C)n1",
    "tested-target": "CDK8/CycC (Homo sapiens, UniProt P49336)",
    "assigned-label": "lower segment"
  },
  {
    "item-smiles": "CSc1nccc(-c2sc(NC(=O)Nc3ccc(CN4CCOCC4)c(C(F)(F)F)c3)nc2C)n1",
    "tested-target": "CDK8/CycC (Homo sapiens, UniProt P49336)",
    "assigned-label": "upper segment"
  }
]

INPUT: Sort into band: CCNc1nccc(-c2sc(NC(=O)Nc3ccc(CN4CCN(C(C)C)CC4)c(C(F)(F)F)c3)nc2C)n1
OUTPUT: middle segment

INPUT: Sort into band: CCNc1nccc(-c2sc(NC(=O)Nc3ccc(CN4CCC(C)CC4)c(C(F)(F)F)c3)nc2C)n1
OUTPUT: middle segment

INPUT: Sort into band: CNc1nccc(-c2sc(NC(=O)Nc3cccc(OC(F)(F)F)c3)nc2C)n1
OUTPUT: middle segment

INPUT: Sort into band: CCN1CCN(Cc2ccc(NC(=O)Nc3nc(C)c(-c4ccnc(N)n4)s3)cc2C(F)(F)F)CC1
OUTPUT: middle segment

INPUT: Sort into band: CNc1nccc(-c2sc(NC(=O)Nc3cccc(OC(F)F)c3)nc2C)n1
OUTPUT: lower segment

INPUT: Sort into band: Cc1nc(NC(=O)Nc2ccc(CN3CCN(C)CC3)c(C(F)(F)F)c2)sc1-c1ccnc(N(C)C)n1
OUTPUT: upper segment

INPUT: Sort into band: CNc1nccc(-c2sc(NC(=O)Nc3cc(C(F)(F)F)ccc3C(F)(F)F)nc2C)n1
OUTPUT: middle segment

INPUT: Sort into band: CNc1nccc(-c2sc(NC(=O)Nc3ccccc3C(F)(F)F)nc2C)n1
OUTPUT: upper segment

INPUT: Sort into band: CNc1nccc(-c2sc(NC(=O)Nc3cccc(C)c3)nc2C)n1
OUTPUT: lower segment

INPUT: Sort into band: CSc1nccc(-c2sc(NC(=O)Nc3ccc(CN4CCN(S(C)(=O)=O)CC4)c(C(F)(F)F)c3)nc2C)n1
OUTPUT: upper segment

INPUT: Sort into band: CC(=O)N1CCN(Cc2ccc(NC(=O)Nc3nc(C)c(-c4ccnc(C(C)C)n4)s3)cc2C(F)(F)F)CC1
OUTPUT: upper segment

INPUT: Sort into band: CCN1CCN(Cc2ccc(NC(=O)Nc3nc(C)c(-c4nc(NC)ncc4C#N)s3)cc2C(F)(F)F)CC1
OUTPUT: upper segment

INPUT: Sort into band: CNc1ncc(F)c(-c2sc(NC(=O)Nc3ccc(CN4CCOCC4)c(C(F)(F)F)c3)nc2C)n1
OUTPUT: middle segment

INPUT: Sort into band: CNc1nccc(-c2sc(NC(=O)Nc3ccc(CN4CCN(C)CC4)c(C(F)(F)F)c3)nc2C)n1
OUTPUT: middle segment

INPUT: Sort into band: CCNc1nccc(-c2sc(NC(=O)Nc3ccc(CN4CCN(C)CC4)c(C(F)(F)F)c3)nc2C)n1
OUTPUT: middle segment

INPUT: Sort into band: CNc1nccc(-c2sc(NC(=O)Nc3ccc(C)cc3)nc2C)n1
OUTPUT: lower segment

INPUT: Sort into band: CNc1nccc(-c2sc(NC(=O)Nc3ccc(OC)cc3)nc2C)n1
OUTPUT: middle segment
